From: PubChem BioAssay

# Tested on: Chordin-like protein 2 (CHRDL2)
# method.notes: CHRDL2 small-molecule binders, primary screen, biochemical, small-molecule microarray, 635 nm fluorescence (AID 1126);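 further: printed compound slides probed with Chrdl2 protein at 4 µg/mL for 1 h at 4 C; score merges 667 nm emission intensity with signal to noise over three replicate slides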
# assay.setup: small-molecule microarray binding, fluorescence 635 nm; higher = more signal
endpoint.name: composite z-score
In your answer, state the number alone without any accompanying words.

Value of composite z-score reported for the compound COc1cc2c(cc1OC)CN(C(=O)[C@H]1[C@@H]3C(=O)O[C@@H](c4ccccc4)[C@@H](c4ccccc4)N3[C@@H](c3ccc(OCCO)cc3)[C@]13C(=O)Nc1ccc(C#CC4(O)CCCCCC4)cc13)CC2 is 0.739

Value of composite z-score reported for the compound C[C@H]1ON(c2ccc(C(=O)OC(C)(C)C)cc2)[C@@H](c2ccc(O)cc2)[C@@H]1C(=O)N1C(=O)OC[C@@H]1c1ccccc1 is 0.456

Value of composite z-score reported for the compound COCCOC(=O)N1C(=O)[C@@]2(c3cc(C#CC4=CCCCC4)ccc31)[C@H](C(=O)N1CCN(c3ncccn3)CC1)[C@H]1C(=O)O[C@H](c3ccccc3)[C@H](c3ccccc3)N1[C@@H]2c1ccc(O)cc1 is 0.204
